Ref: patent US20140228377A1

- assayed.target: orexin-2 receptor (hOX2R) (Homo sapiens, UniProt O43614)
- Construct: expressed in transfected cells; host or cells: Chinese hamster ovary (CHO) cells
- Sequence (O43614 1-444): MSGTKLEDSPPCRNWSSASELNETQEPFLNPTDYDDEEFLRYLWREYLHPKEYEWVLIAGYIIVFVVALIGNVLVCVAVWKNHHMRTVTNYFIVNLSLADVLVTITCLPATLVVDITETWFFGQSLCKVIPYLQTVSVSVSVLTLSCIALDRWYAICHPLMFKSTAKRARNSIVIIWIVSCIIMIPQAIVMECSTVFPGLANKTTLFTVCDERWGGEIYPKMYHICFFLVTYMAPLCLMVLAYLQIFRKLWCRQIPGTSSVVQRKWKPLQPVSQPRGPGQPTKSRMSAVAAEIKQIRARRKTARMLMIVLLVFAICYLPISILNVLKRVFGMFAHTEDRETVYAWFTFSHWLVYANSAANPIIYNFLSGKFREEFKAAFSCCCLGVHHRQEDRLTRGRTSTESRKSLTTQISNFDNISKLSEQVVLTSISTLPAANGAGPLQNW
- assay.overview: Orexin antagonistic activity assay (intracellular Ca2+, FDSS) in CHO cells expressing hOX2R
- Format: cell-based
- condition.context: CHO cells expressing hOX2R; ligand peptide 3 nM; Fluo-3 maximum fluorescence intensity; read-out: IC50 value OX2
Binary call on IC50 with cut-off 0.01 µM: strictly below means Condition met, and equality or higher means Condition not met.

Cc1ccc(-n2nccn2)c(C(=O)N2C[C@H](c3nc4cc(F)c(F)cc4o3)CC[C@H]2C)n1 [Example 54] = Condition not met
Cc1ccc(-n2nccn2)c(C(=O)N2C[C@H](c3nc4ccc(Cl)cc4o3)CC[C@H]2C)n1 [Example 46] = Condition not met
COc1ccc(-n2nccn2)c(C(=O)N2C[C@H](c3nc4cc(Cl)ccc4o3)CC[C@H]2C)c1 [Example 25] = Condition not met
Cc1ccc(-n2nccn2)c(C(=O)N2C[C@H](c3nc4c(F)cc(F)cc4o3)CC[C@H]2C)c1 [Example 60] = Condition not met
C[C@@H]1CC[C@@H](c2nc3ccc(Cl)cc3o2)CN1C(=O)c1cc(F)ccc1-c1ncccn1 [Example 45] = Condition not met
Cc1ccc(-n2nccn2)c(C(=O)N2C[C@H](c3nc4cc(F)ccc4o3)CC[C@H]2C)n1 (single isomer, unassigned) [Example 11] = Condition not met

# input Is IC50 of C[C@@H]1CC[C@@H](c2nc3cc(Cl)ccc3o2)CN1C(=O)c1c(F)cccc1-c1ncccn1 [Example 19] strictly below 0.01 µM?
# output Condition met

# input Criterion: IC50 strictly below 0.01 µM. Is it met by C[C@@H]1CC[C@@H](c2nc3cc(Cl)ccc3o2)CN1C(=O)c1c(F)cccc1-n1nccn1 [Example 16] ?
# output Condition met

# input # TODO verify IC50 < 0.01 µM strictly for this compound: Cc1ccc(-n2nccn2)c(C(=O)N2C[C@H](c3nc4cc(C(F)(F)F)ccc4o3)CC[C@H]2C)n1 [Example 40]
# output Condition not met

# input Does the reported IC50 of the following compound sit strictly below 0.01 µM? C[C@@H]1CC[C@@H](c2nc3cc(Cl)ccc3o2)CN1C(=O)c1cc(Cl)ccc1-c1ncccn1 [Example 13]
# output Condition not met

# input Bench note: check whether Cc1ccc(-c2ncccn2)c(C(=O)N2C[C@H](c3nc4c(Cl)cccc4o3)CC[C@H]2C)c1 [Example 69] shows IC50 below 0.01 µM
# output Condition met

# input Please indicate whether the reported IC50 of C[C@@H]1CC[C@@H](c2nc3cc(F)c(F)cc3o2)CN1C(=O)c1cc(F)ccc1-c1ncccn1 [Example 52] is strictly below 0.01 µM.
# output Condition not met

# input Check if IC50 falls below 0.01 µM for Cc1ccc(-n2nccn2)c(C(=O)N2C[C@H](c3nc4cc(Cl)ccc4o3)CC[C@H]2C)n1 [Example 1] .
# output Condition not met
